target system: furin, P09958;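 note: purified furin at 1:10 enzyme:substrate in 50 mM HEPES pH 7.5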
Sequence (P09958 whole entry): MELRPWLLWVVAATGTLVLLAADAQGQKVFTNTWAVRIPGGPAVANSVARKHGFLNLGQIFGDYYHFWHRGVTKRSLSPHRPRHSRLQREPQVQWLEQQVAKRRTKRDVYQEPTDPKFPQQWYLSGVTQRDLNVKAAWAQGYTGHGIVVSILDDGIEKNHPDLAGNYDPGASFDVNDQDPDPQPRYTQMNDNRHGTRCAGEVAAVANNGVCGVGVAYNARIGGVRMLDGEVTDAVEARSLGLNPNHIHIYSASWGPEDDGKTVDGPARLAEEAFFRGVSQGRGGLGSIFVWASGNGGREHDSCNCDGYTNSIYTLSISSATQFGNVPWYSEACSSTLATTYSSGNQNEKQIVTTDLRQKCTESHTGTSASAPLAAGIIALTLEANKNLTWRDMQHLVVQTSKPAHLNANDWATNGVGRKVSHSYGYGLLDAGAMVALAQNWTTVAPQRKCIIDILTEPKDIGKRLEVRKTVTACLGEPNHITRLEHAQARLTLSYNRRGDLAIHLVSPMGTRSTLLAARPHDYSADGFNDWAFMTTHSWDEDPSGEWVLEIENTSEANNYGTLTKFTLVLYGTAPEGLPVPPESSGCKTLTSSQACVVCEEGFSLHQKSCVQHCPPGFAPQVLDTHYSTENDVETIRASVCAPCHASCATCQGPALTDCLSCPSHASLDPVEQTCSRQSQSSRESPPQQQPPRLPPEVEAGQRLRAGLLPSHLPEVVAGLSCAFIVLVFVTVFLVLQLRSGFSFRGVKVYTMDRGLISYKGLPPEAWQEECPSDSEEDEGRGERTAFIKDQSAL
protocol summary: furin cleavage Z-score vs untreated control; higher = more cleavage, active = 3.5 or more, inactive = 1 or less, 8 variable residues between constant flanks
stated conditions: 15 min
Some of the results follow. No count for the full screen is at hand.
Possible outcomes: Yes (active), No (inactive)

>  <residue codes>
CAEKRRSADIAGNASASA [FS-2630]

>  <assigned label>
No

$$$$
>  <residue codes>
CAEKTRHARQAGNASASA [FS-1520]

>  <assigned label>
Yes

$$$$
>  <residue codes>
CAAGVAGALVAGNASASA [HC1089]

>  <assigned label>
No

$$$$
>  <residue codes>
CAEAWRSRRDAGNASASA [FS-761]

>  <assigned label>
Yes

$$$$
>  <residue codes>
CAEVVTSRWVAGNASASA [HC2213]

>  <assigned label>
No

$$$$
>  <residue codes>
CAGKSRNKRQAGNASASA [FS-243]

>  <assigned label>
Yes

$$$$
>  <residue codes>
CASDSRHSRQAGNASASA [FS-1612]

>  <assigned label>
No

$$$$
